- Tested on: Plasmodium falciparum
- assay notes: GSK_TCMDC: Inhibition of Plasmodium falciparum Dd2 in whole red blood cells, using parasite LDH activity as an index of growth. Test compounds present at 2uM
- Format: functional
measured attribute: Inhibition (%)
Answers are plain numbers, in %.

In the examples that follow, each entry is paired with its recorded Inhibition.
O=C(NC1CCN(CC2(c3ccc(Cl)cc3)CCC2)CC1)c1cscn1 : 95
O=C(/C=C/c1ccc(Cl)c(Cl)c1)N1CCC2CC(N3CCC(c4c[nH]c5ccccc45)CC3)CCC2C1 (stereo not drawn) : 99
COc1nc(N)ncc1C(=O)NC1CN2CCC1CC2 (stereo not drawn) : 0

The following molecules each have a reported value; give each one's Inhibition.
1. CCCCCCC(C)(C)c1cc(O)c2c(c1)OC(C)(C)c1ccncc1-2.Cl
2. Oc1ccccc1CNCC(O)c1cc(C(F)(F)F)cc(C(F)(F)F)c1 (stereo not drawn)
3. CCN(Cc1ccccc1)CC(O)c1ccc(Cl)c(Cl)c1.Cl (stereo not drawn)

99
100
71

Please report Inhibition for every entry that follows.
1. CN(c1cc(NC(=O)c2ccc(F)cc2)ccn1)C1CCN(Cc2cccc(C#N)c2)CC1.O=C(O)C(F)(F)F
2. CC[C@H]1CN2CC[C@@H]1C[C@H]2[C@H](O)c1cc(N2CCOCC2)nc2ccc(OC)cc12
3. CCOc1ccc2nccc([C@@H](O)[C@@H]3C[C@@H]4CCN3C[C@@H]4CC)c2c1 [ETHYLHYDROCUPREINE]
4. O=C(/C=C/c1ccc(Cl)c(Cl)c1)NC1CCC(CN2CCC(c3c[nH]c4ccccc34)CC2)CC1 (stereo not drawn)

1: 83; 2: 99; 3: 51; 4: 85
